system: HCV replicon; assay: Replicon based assay of HCV replication inhibition (NPT ELISA); assay type: cell-based, Hepatitis C virus; settings: Hepatitis C virus, replicon based assay of HCV replication inhibition; Table IV; read-out: Activity
pEC50: −log10 of the molar value.
reported endpoint: pEC50

| mol smiles | pEC50 |
| --- | --- |
| CCCCCCCCOc1ccc(Nc2nc(-c3nc4ccccc4n3C)cs2)cc1C(F)(F)F | > 6.00 |
| N#Cc1ccc(Nc2nc(-c3cccnc3)cs2)cc1C(F)(F)F | < 5.00 |
| Cc1ccc(Oc2ccc(Nc3nc(-c4cccnc4)cs3)cc2)cc1 | > 6.00 |

Query string: Name the recorded pEC50 for Fc1ccc(Nc2nc(-c3cccnc3)cs2)c(F)c1F .
Result string: < 5.00

* * *

test system: HCV replicon; experiment: Replicon based assay of HCV replication inhibition (NPT ELISA); type: cell-based, Hepatitis C virus; conditions: Hepatitis C virus, Huh-7, 72 h, Table III; Huh-7 HCV replicon-containing cells, three days; read-out: Activity
pEC50: −log10 of the molar value.
Documented pEC50 across a set of compounds

| mol smiles | pEC50 |
| --- | --- |
| CCCCCCCCOc1ccc(Nc2nc(Cc3ccc(F)c(F)c3)cs2)cc1C(F)(F)F | 5.00 to 6.00 |
| CCCCCCCCN(C)c1ccc(Nc2nc(-c3sc(-c4cnccn4)nc3C)cs2)cc1C(F)(F)F | 5.00 to 6.00 |
| CCCC/C=C\CCOc1ccc(Nc2nc(-c3ccc(F)cc3)cs2)cc1C(F)(F)F | > 6.00 |
| CCCCCCCCOC(=O)c1ccc(Nc2nc(-c3cccnc3)cs2)cc1C(F)(F)F | > 6.00 |

Now, please, on to the next compound.
Query string: Name the recorded pEC50 for CCCCCCCCc1ccc(Nc2nc(-c3ccc4[nH]c(=O)oc4c3)cs2)cc1 .
Result string: > 6.00
